# assay.method.text: Plasma pharmacokinetics of volasertib and CD 10899 (HPLC-MS/MS)
# Type: in vivo, human
# applied.conditions: human, plasma, intravenous, volasertib combined with cisplatin; n = 28; read-out: CL (total clearance), gMean
reported.property: clearance (mL/min)
Lab book: enter the figure in mL/min, no units written.

I have this compound here, CC[C@@H]1C(=O)N(C)c2cnc(Nc3ccc(C(=O)N[C@H]4CC[C@H](N5CCN(CC6CC6)CC5)CC4)cc3OC)nc2N1C(C)C , and I need its recorded clearance.
999

----------
# assay.method.text: Plasma pharmacokinetics of volasertib and CD 10899 (HPLC-MS/MS)
# Type: in vivo, human
# applied.conditions: human, plasma, intravenous, volasertib combined with cisplatin; n = 28; read-out: t1/2 (terminal half-life), gMean (converted)
reported.property: half-life
Quick note: unit goes after the number.

// returns reported half-life for input CC[C@@H]1C(=O)N(C)c2cnc(Nc3ccc(C(=O)N[C@H]4CC[C@H](N5CCN(CC6CC6)CC5)CC4)cc3OC)nc2N1C(C)C
137 h

Every entry's value here was drawn from paper PMC4435638.
